A collection of compounds and their measured Cmax
experiment: Pharmacokinetic activity in mice; format: in vivo; conditions: mouse, plasma, IV - 1 mg/kg
READOUT: Cmax (ng/mL)

> print(dat)
                                        smi   val
1  C[C@@H](NC(=O)c1ccc(-c2ccncc2)cc1)c1cccc(C(=O)NC2CCCC2)c1  4340
2  CN1CCc2ccc(NC(=O)c3cccc([C@@H](CO)NC(=O)c4ccc(-c5ccncc5)cc4)c3)cc2C1   190
3  O=C(NC1CCCC1)c1cccc([C@@H](CO)NC(=O)c2ccc(-c3ccncc3)cc2)c1  4180

###

Data export: IC50 values recorded with ROCK2 (Homo sapiens (Human)).
Sequence (O75116 whole entry, species assumed): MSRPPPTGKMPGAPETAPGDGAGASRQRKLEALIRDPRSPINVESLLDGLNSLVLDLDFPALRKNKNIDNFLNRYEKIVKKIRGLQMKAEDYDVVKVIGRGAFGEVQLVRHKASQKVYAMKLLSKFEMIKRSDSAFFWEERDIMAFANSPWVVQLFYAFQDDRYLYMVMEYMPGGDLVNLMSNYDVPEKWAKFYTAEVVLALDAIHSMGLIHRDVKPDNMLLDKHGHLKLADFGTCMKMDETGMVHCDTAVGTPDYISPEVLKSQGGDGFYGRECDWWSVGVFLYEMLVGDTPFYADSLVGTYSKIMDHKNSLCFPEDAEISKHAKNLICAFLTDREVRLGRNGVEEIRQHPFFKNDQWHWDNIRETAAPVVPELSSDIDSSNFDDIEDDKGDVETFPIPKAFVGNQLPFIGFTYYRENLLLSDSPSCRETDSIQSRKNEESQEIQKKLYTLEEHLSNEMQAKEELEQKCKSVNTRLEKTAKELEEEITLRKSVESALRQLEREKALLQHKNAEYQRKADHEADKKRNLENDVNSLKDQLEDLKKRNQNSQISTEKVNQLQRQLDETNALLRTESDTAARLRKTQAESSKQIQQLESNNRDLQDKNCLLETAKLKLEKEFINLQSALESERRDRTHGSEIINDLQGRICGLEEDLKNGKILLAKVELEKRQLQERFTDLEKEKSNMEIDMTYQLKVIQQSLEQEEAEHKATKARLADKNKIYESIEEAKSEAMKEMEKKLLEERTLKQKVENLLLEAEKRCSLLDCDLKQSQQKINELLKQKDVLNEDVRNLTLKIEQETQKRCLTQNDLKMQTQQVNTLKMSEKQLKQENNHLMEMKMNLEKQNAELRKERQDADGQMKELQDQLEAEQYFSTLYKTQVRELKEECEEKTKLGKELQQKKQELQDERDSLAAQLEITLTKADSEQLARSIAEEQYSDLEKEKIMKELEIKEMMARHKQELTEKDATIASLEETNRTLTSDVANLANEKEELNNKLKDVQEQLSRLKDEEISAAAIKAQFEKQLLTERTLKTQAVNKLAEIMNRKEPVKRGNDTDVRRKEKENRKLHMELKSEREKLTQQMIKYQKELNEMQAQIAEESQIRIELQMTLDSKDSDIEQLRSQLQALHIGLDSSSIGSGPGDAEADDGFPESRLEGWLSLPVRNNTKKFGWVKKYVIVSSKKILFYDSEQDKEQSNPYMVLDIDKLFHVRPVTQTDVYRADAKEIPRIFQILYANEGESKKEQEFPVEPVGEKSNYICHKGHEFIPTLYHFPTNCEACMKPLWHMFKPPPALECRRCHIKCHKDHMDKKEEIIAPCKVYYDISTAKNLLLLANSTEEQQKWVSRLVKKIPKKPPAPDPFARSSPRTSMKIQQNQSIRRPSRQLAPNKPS
READOUT: IC50 (nM)

> print(dat)
                                   compound  unit.of.measure   val
1  Cn1ccc2ccc(NC(=O)c3cccc([C@@H](CO)NC(=O)c4ccc(-c5ccncc5)cc4)c3)cc2c1=O [Compound 28]               nM   1.1
2  CC1(NC(=O)c2cccc([C@@H](CO)NC(=O)c3ccc(-c4ccncc4)cc3)c2)CCC1 [Compound 71]               nM     9
3  Cc1cc(-c2cn[nH]c2)ccc1C(=O)N[C@H](CO)c1cccc(C(=O)NC2CCCC2)c1 [Compound 96]               nM  53.1

###

test system: K562 cell line; assay: Cell viability assay ([…]-GLO), K562; format: cell-based; settings: Homo sapiens; K562 (does not express ITD-FLT3), 72 hours treatment
The threshold is 40 µM. Values of IC50 beneath it are tagged yes; values meeting or exceeding it are tagged no.

> print(dat)
                                   compound  discrete.label
1  COCCOc1cc(-c2cn[nH]c2)ccc1C(=O)N[C@H](C)c1cccc(C(=O)NC2CCCC2)c1              no
2  O=C(NCC1CCCC1)c1cccc([C@@H](CO)NC(=O)c2ccc(-c3ccncc3)cc2)c1              no
3  O=C(NC1CCC1)c1cccc([C@@H](CO)NC(=O)c2ccc(-c3ccncc3)cc2)c1              no
4  Cc1cc(-c2ccncc2)ccc1C(=O)N[C@H](CO)c1cccc(C(=O)NC2CCCC2)c1              no
5  CC(NC(=O)c1ccc(-c2ccncc2)cc1)c1cccc(OCC(=O)Nc2ccc3c(c2)CN(C)CC3)c1 (stereo not drawn)             yes
6  O=C(Nc1ccccc1)c1cccc([C@@H](CO)NC(=O)c2ccc(-c3ccncc3)cc2)c1             yes
7  CC(C)NC(=O)c1cccc([C@@H](CO)NC(=O)c2ccc(-c3ccncc3)cc2)c1              no
8  COc1ccc(C(=O)N[C@H](CO)c2cccc(C(=O)Nc3ccc4c(c3)CN(C)CC4)c2)cc1C              no
9  O=C(NC1CCN(CC(F)(F)F)CC1)c1cccc([C@@H](CO)NC(=O)c2ccc(-c3ccncc3)cc2)c1              no

###

A collection of compounds and their measured pIC50
target: ROCK2 (Homo sapiens (Human))
pIC50: −log10 of the molar value.
READOUT: pIC50

> print(dat)
                                   compound  readout   val
1  O=C(NC1CCN(CC(F)(F)F)CC1)c1cccc([C@@H](CO)NC(=O)c2ccc(-c3ccncc3)cc2)c1 [Compound 79]    pIC50  9.17
2  O=C(NC1CCC(F)(F)CC1)c1cccc([C@@H](CO)NC(=O)c2ccc(-c3ccncc3)cc2)c1 [Compound 53]    pIC50  9.18
3  CCN1CCC(CNC(=O)c2cccc([C@@H](CO)NC(=O)c3ccc(-c4ccncc4)cc3)c2)CC1 [Compound 59]    pIC50  9.34
4  Cc1cc(-c2ccncc2)ccc1C(=O)N[C@H](CO)c1cccc(C(=O)NC2CCCC2)c1 [Compound 88]    pIC50  8.12
5  COc1ccc(C(=O)N[C@H](C)c2cccc(C(=O)Nc3nc4c(s3)CN(C)CC4)c2)cc1C [Compound 17]    pIC50  7.65
6  CN(C)c1ccc(CNC(=O)c2cccc([C@@H](CO)NC(=O)c3ccc(-c4ccncc4)cc3)c2)cc1 [Compound 30]    pIC50  8.82
7  CN1CCc2ccc(NC(=O)c3cccc([C@@H](CO)NC(=O)c4ccc(-c5ccncc5)cc4)c3)cc2C1 [Compound 7]    pIC50  8.82

###

system: K562 cell line; test: Cell viability assay ([…]-GLO), K562; type: cell-based; conditions: Homo sapiens; K562 (does not express ITD-FLT3), 72 hours treatment
A collection of compounds and their measured IC50
READOUT: IC50 (µM)

> print(dat)
                                        smi  unit.of.measure  modifier  val
1  CNC(=O)c1cccc([C@@H](CO)NC(=O)c2ccc(-c3ccncc3)cc2)c1               µM         >  100
2  O=C(NCC1CCC1)c1cccc([C@@H](CO)NC(=O)c2ccc(-c3ccncc3)cc2)c1               µM         =   36
3  CN(C)CCc1ccc(NC(=O)c2cccc([C@@H](CO)NC(=O)c3ccc(-c4ccncc4)cc3)c2)cc1               µM         =   16
4  C[C@@H](NC(=O)c1ccc(-c2ccncc2)cc1)c1cccc(C(=O)Nc2ccc3c(c2)CN(C)CC3)c1               µM         =    8
5  O=C(NCC1CCC(F)(F)CC1)c1cccc([C@@H](CO)NC(=O)c2ccc(-c3ccncc3)cc2)c1               µM         =   28
6  O=C(NC1CCCC1)c1cccc([C@@H](CO)NC(=O)c2ccc(-c3cn[nH]c3)cc2F)c1               µM         =   76
7  C[C@@H](NC(=O)c1ccc(-c2ccncc2)cc1)c1cccc(C(=O)NCc2ccc(CN(C)C)cc2)c1               µM         =  9.4

###

system: K562 cell line; assay: Cell viability assay ([…]-GLO), K562; type: cell-based; settings: Homo sapiens; K562 (does not express ITD-FLT3), 72 hours treatment
pIC50: −log10 of the molar value.
READOUT: pIC50

> print(dat)
                                    compound  modifier   val
 1  O=C(NCC1CCCCC1)c1cccc([C@@H](CO)NC(=O)c2ccc(-c3ccncc3)cc2)c1         =  4.41
 2  CC1(NC(=O)c2cccc([C@@H](CO)NC(=O)c3ccc(-c4ccncc4)cc3)c2)CCC1         =  4.47
 3  O=C(NCC1CC1)c1cccc([C@@H](CO)NC(=O)c2ccc(-c3ccncc3)cc2)c1         =  4.48
 4  COC1(CNC(=O)c2cccc([C@@H](CO)NC(=O)c3ccc(-c4ccncc4)cc3)c2)CCCC1         =  4.64
 5  CN(C)CC1(NC(=O)c2cccc([C@@H](CO)NC(=O)c3ccc(-c4ccncc4)cc3)c2)CCCC1         =  4.13
 6  O=C(NCc1ccccc1)c1cccc([C@@H](CO)NC(=O)c2ccc(-c3ccncc3)cc2)c1         =  4.57
 7  COc1cc(-c2ccncc2)ccc1C(=O)N[C@H](CO)c1cccc(C(=O)NC2CCCC2)c1         <  4.00
 8  CCc1ccc(-c2ccncc2)cc1C(=O)N[C@H](CO)c1cccc(C(=O)NC2CCCC2)c1         =  4.07
 9  CC(C)NC(=O)c1cccc(CNC(=O)c2ccc(-c3ccncc3)cc2)c1         <  4.00
10  COc1ccc(NC(=O)c2cccc([C@@H](CO)NC(=O)c3ccc(-c4ccncc4)cc3)c2)cn1         =  4.07
11  Cc1cc(-c2cn[nH]c2)ccc1C(=O)N[C@H](CO)c1cccc(C(=O)NC2CCCC2)c1         =  4.00
12  O=C(COc1cccc(CNC(=O)c2ccc(-c3ccncc3)cc2)c1)NC1CC1         <  4.00
13  CN(C)Cc1cccc(NC(=O)c2cccc([C@@H](CO)NC(=O)c3ccc(-c4ccncc4)cc3)c2)c1         =  4.32
14  O=C(NC1CCCC1)c1cccc([C@@H](CO)NC(=O)c2ccc(-c3ccncc3)cc2F)c1         <  4.00
15  CN(C)C1CCC(NC(=O)c2cccc([C@@H](CO)NC(=O)c3ccc(-c4ccncc4)cc3)c2)CC1 (stereo partly shown)         <  4.00
16  CN(C)Cc1cccc(CNC(=O)c2cccc([C@@H](CO)NC(=O)c3ccc(-c4cn[nH]c4)cc3)c2)c1         <  4.00
